# System: NCI-H226
# test-description: NCI tumour cell line growth inhibition, 48 h
Calls of active or inactive are those of the source. Cut-off read from the data, not from the text of the source: active = GI50 up to about 1.1 µM and inactive = higher.
Pick from active, inactive when you respond.

Please review the entries below; each comes with its answer.
[[record]]
compound = "O=C(Nc1cccc(Cc2cccc(NC(=O)c3ccccc3)c2)c1)c1ccccc1"
cat = "inactive"

[[record]]
compound = "O=C(CCC1CCCCC1)NCc1ccc(C(=O)O)cc1"
cat = "inactive"

[[record]]
compound = "COc1cccc(C2c3cc4c(cc3OC(O)C2C)OCO4)c1OC (stereo unspecified)"
cat = "inactive"

[[record]]
compound = "Cc1cccc(C(C)C)c1NC(=O)CC1Sc2ccccc2NC1=O (stereo unspecified)"
cat = "inactive"

[[record]]
compound = "COc1ccc(C[C@H]2NC[C@H](O)[C@H]2OC(C)=O)cc1 [ANISOMYCIN]"
cat = "active"


Test call, this compound: `CC(C)/C(Cl)=N\OC(=O)Nc1ccc(F)cc1F`
inactive

Param item: `O=c1[nH]c2nccn2c2c1SCCN2`
inactive

Next record, please: C[C@@H]1OC2(O)[C@H]3CCCN3S(=O)(=O)CCN2C1=O (stereo partly specified)
inactive

Here is the next compound: `CCCC[C@@H](C)/C=C1\CN2CCC[C@H]2[C@@](C)(O)[C@@H]1O`
inactive

What do you get for CC(C)(C)N1CC1CNC(=O)C(=O)NCC1CN1C(C)(C)C (stereo unspecified) ?
inactive

CN1C(c2ccccc2)CC(=NOCc2ccccc2)CC1c1ccccc1 (stereo unspecified) ?
inactive

###

# Test system: SF-539
# test-description: NCI tumour cell line growth inhibition, 48 h
Active and inactive are the calls of the source. Rule as the data show it: active = GI50 up to about 1.1 µM and inactive = higher.
Below, each of the compounds is paired with its reported GI50 value.

Previously resolved entries follow.
[[record]]
compound = "CN(C)C(=S)N1C(=S)N(c2ccccc2)C(=N/c2ccccc2)/C1=N\\c1ccccc1"
recorded_value = "> 100 µM (inactive)"

[[record]]
compound = "COC1(OC)N=C(N)C2(C#N)/C(=N/N(C)C)CC(C)C12C#N (configuration not stated)"
recorded_value = "> 100 µM (inactive)"

[[record]]
compound = "O=C1O[C@H](COC(=O)c2ccccc2)[C@@H](OC(=O)c2ccccc2)C=C1OC(=O)c1ccccc1"
recorded_value = "17.6 µM (inactive)"


Request the reported GI50 associated with `COc1cc(C2C3=C(CCCC3=O)N(c3ccc(C)cc3)C3=C2C(=O)CCC3)c([N+](=O)[O-])cc1OC`
61.1 µM (inactive)

Next record, please: CCCCCCCCCCCCCCCC(=O)Nc1ccn(C2CCC(COP(=O)(O)OCC3OC(n4cc(F)c(=O)[nH]c4=O)CC3OC(C)=O)O2)c(=O)n1 (configuration not stated)
1.03 µM (active)

Further, for CC1C(C#N)(C#N)C(C#N)=C(N)C1(Cl)[N+](=O)[O-] (configuration not stated) ?
11.5 µM (inactive)

###

Record: GI50 reported on HCT-15.
Give the value in µM but do not write µM after it.

Solved entries:
[[record]]
molecule = "COc1ccc(C[C@H]2NC[C@H](O)[C@H]2OC(C)=O)cc1"
tested_on = "HCT-15"
quantity_unit = "µM"
recorded_value = 0.0326

[[record]]
molecule = "C=C1C[C@@H](O)[C@@H](Br)C(C)(C)[C@]12CCC(C)(Cl)C(Br)C2 (stereo partly specified)"
tested_on = "HCT-15"
quantity_unit = "µM"
recorded_value = 35.1

[[record]]
molecule = "CC1=C(N2CC2)C(=O)c2nc3n(c2C1=O)CCC3O (stereo unspecified)"
tested_on = "HCT-15"
quantity_unit = "µM"
recorded_value = 13.6

[[record]]
molecule = "CC1(C)CC2(C)OC(=N)C1(C#N)C2(C#N)C#N (stereo unspecified)"
tested_on = "HCT-15"
quantity_unit = "µM"
recorded_value = 2.36

[[record]]
molecule = "c1ccc(/C(=N/Nc2nc3ccccc3s2)C2CCCCC2)nc1"
tested_on = "HCT-15"
quantity_unit = "µM"
recorded_value = 2.77


Moving on to the next molecule.
Given `Nc1ccc2c(c1)CN1C(=O)c3ccccc3C1=N2` , state its recorded GI50.
34.8
